assay: Cytotoxicity counterscreen for inhibitors of SARS-CoV-2 cell entry (AID 1645845); conditions: cell viability (SARS-CoV-2 entry assay cells); series mostly up to 57.1 µM; note: nearly all actives have a fitted effect of over 50% in size
Inconclusive results are not listed. Activity calls are given as the source filed them. Calls come from the whole dose curve.
Parameter call: string, one of y for active, n for inactive

molecule	class-name
O=c1[nH]c2ccccc2n1CCN1CCN(c2cccc(C(F)(F)F)c2)CC1	n

Prompt line: Could you please tell me the result logged for Nc1nc(N)c2nc(-c3cccc(O)c3)c(-c3cccc(O)c3)nc2n1 in this assay?
Response line: n

Prompt line: Same read-out for C/C(=C\c1csc(C)n1)[C@@H]1C[C@@H]2O[C@@H]2CCC[C@H](C)[C@H](O)[C@@H](C)C(=O)C(C)(C)[C@@H](O)CC(=O)O1 ?
Response line: n

====

biological target: Nucleoprotein (Lymphocytic choriomeningitis virus (strain Armstrong)) (UniProt P09992); assay: qHTS for Inhibitors of the Functional Ribonucleoprotein Complex (vRNP) of Lymphocytic Choriomeningitis Arenaviruses (LCMV): LCMV Primary Screen - GLuc reporter signal (AID 1347086); conditions: LCMV minigenome vRNP cell assay, Gaussia luciferase reporter; series mostly up to 57.5 µM; note: nearly all actives have a fitted effect of over 70% in size
Sequence (P09992 whole entry, looked up): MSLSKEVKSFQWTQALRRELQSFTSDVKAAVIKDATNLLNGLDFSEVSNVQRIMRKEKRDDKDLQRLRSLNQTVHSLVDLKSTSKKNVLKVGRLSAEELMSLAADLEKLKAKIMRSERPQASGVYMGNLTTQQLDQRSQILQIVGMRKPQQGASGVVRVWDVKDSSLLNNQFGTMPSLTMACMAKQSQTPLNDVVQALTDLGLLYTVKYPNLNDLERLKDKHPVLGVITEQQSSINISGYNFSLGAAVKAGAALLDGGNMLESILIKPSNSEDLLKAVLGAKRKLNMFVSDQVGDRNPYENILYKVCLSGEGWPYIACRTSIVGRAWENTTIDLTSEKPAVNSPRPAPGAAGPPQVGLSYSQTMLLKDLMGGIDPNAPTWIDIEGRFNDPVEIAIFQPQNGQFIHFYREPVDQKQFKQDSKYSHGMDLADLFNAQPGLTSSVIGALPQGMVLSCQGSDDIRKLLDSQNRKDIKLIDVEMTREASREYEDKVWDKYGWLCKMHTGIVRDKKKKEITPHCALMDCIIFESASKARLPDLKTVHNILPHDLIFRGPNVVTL
Inconclusive results are not listed. Calls of active or inactive are those of the source. Calls come from the whole dose curve.
Respond only with the outcome that fits, drawn from True (active), False (inactive)

Example entries begin here.
compound	class-name
CCCC1CCOC(C)S1 (stereo not given)	False
CC(/C=C/C=C(\C)C(=O)O[C@@H]1O[C@H](CO[C@@H]2O[C@H](CO)[C@@H](O)[C@H](O)[C@H]2O)[C@@H](O)[C@H](O)[C@H]1O)=C\C=C\C=C(C)\C=C\C=C(/C)C(=O)O[C@@H]1O[C@H](CO[C@@H]2O[C@H](CO)[C@@H](O)[C@H](O)[C@H]2O)[C@@H](O)[C@H](O)[C@H]1O	False
CCC1(CC)C(=O)NC(=O)N(c2ccccc2)C1=O	False
CCOC(=O)C1=C(O)C(=O)N(Cc2ccccc2)C1	False

Pending compound:
Prompt line: Recorded test call requested for COc1cc(C2OCC3C(c4ccc(OC5OC(CO)C(O)C(O)C5O)c(OC)c4)OCC23)ccc1O (stereo not given)
Response line: False

====

assay: qHTS for Inhibitors of the Functional Ribonucleoprotein Complex (vRNP) of Lassa (LASV) Arenavirus: LASV Primary Screen - GLuc reporter signal (AID 1347082); details: LASV minigenome vRNP, Gaussia luciferase reporter; series mostly up to 57.5 µM; note: nearly all actives have a fitted effect of over 60% in size
Inconclusive results are not listed. Active and inactive are the calls of the source. Calls follow the shape of the full dose curve; tested in HEK293 reporter line.
# output must be one of active, inactive

Worked examples, 4 compounds total:
compound	class-name
COc1c(OCCCN2CCOCC2)ccc2c3n(c(=NC(=O)c4cnc(N)nc4)nc12)CCN3	active
CC1OC(OC2CC(O)C3(CO)C4C(O)CC5(C)C(C6=CC(=O)OC6)CCC5(O)C4CCC3(O)C2)C(O)C(O)C1O (stereo unspecified)	inactive
C=C(C)C(Cc1c(OC)ccc(C(=O)/C=C/c2ccc(O)cc2)c1O)OO (stereo unspecified)	inactive
CS[C@H]1SC[C@@H]2C(=O)N(C)[C@H](C(C)C)C(=O)OC[C@H](NC(=O)c3cnc4ccccc4n3)C(=O)N[C@H](C)C(=O)N(C)[C@@H]1C(=O)N(C)[C@H](C(C)C)C(=O)OC[C@H](NC(=O)c1cnc3ccccc3n1)C(=O)N[C@H](C)C(=O)N2C	active

Prompt line: # fetch the recorded call for C[C@]12CC[C@H](O)CC1=CCC1C2CC[C@@]2(C)C1C[C@@H](O)[C@@H]2O (stereo partly specified) here
Response line: inactive

Prompt line: And for CCc1ccc2c(-c3cccc(Cl)c3)nc(=O)n(CC)c2n1 ?
Response line: inactive

====

test: qHTS for Inhibitors of the Functional Ribonucleoprotein Complex (vRNP) of Lassa (LASV) Arenavirus: Viability assay - alamar blue signal for LASV Primary Screen (AID 1347083); details: cell viability, alamar blue fluorescence (LASV minigenome counter-screen); series mostly up to 57.5 µM; note: nearly all actives have a fitted effect of over 80% in size
Results filed as inconclusive are left out. The source made the active and inactive calls. Calls follow the shape of the full dose curve; tested in HEK293 reporter line.
Your answer must be one of the following: Y (active), N (inactive)

Solved cases below.
compound	class-name
O=C1c2ccccc2-c2n[nH]c3cccc1c23	Y
CC(C)C(=O)OCCc1ccccc1	N
C=CCN1CCc2cc(O)c(O)cc2C(c2ccccc2)C1 (configuration not stated)	N

Prompt line: Check the results log: what was the call for C/C=C(/C)C(=O)OC1Cc2c(ccc3ccc(=O)oc23)OC1(C)C (configuration not stated) ?
Response line: N

Prompt line: Now the compound COC(=O)c1ccc(=O)c2nc3/c(=C/O)c(O)cc(=O)c3[nH]c12
Response line: N

Prompt line: Now try Nc1nc2c(cnn2CCc2ccccc2)c2nc(-c3ccco3)nn12 .
Response line: N

Prompt line: Could you do the same for COCCOC(=O)C1=C(C)NC2=C(C(=O)CC(c3ccccc3OC)C2)C1c1cccc(O)c1 (configuration not stated) , please?
Response line: Y

Prompt line: Now the same for CC1(C)C=Cc2c(c3ccccc3[nH]c2=O)O1
Response line: N

====

Test: Primary fluorescence-based thiol-reactive (MSTI) qHTS assay for identification of artifact compounds. (AID 1845221); note: nearly all actives have a fitted effect of over 65% in size
Details: MSTI thiol-reactivity probe, 1 h; series mostly up to 53.8 µM
Source text: PI: Alexander Tropsha Ph.D. UNC Eshelman School of Pharmacy University of North Carolina, Chapel Hill, North Carolina Hits from high-throughput screening (HTS) of chemical libraries are often false positives due to their interference with the assay detection technology. […] Using these curated datasets, we developed and validated several Quantitative Structure-Interference Relationship (QSIR) models to predict nuisance behavior. […]
Results filed as inconclusive are left out. Activity calls are given as the source filed them. The call rests on the fitted dose curve; in most records, active means well fitted inhibition curve with a large enough effect; inconclusive means small, poorly fitted or top-dose-only effect; inactive means no such curve, though single readings can be large or run the other way.
Output constraint: value belongs to active, inactive

Study these solved cases before continuing.
molecule	class-name
CC1=CC2(O)/C=C/C(C)(O)C(O)C(O)/C=C/C(=O)OC23C(=O)NC(CC(C)C)C3C1C (stereo not given)	active
CC(C)C(=O)O[C@H]1[C@@H]2[C@H](C)C(=O)O[C@@H]2C[C@@H](C)[C@@H]2C=CC(=O)[C@]21C	inactive
Cc1c(N2C(=O)[C@@H]3[C@H](O)CCN3C2=O)ccc(C#N)c1Cl	inactive

Prompt line: # lookup: test call for COC1(C[S@@](=O)c2ccccc2)CCN(CCc2c[nH]c3ccc(F)cc23)CC1
Response line: inactive

Prompt line: Also CCCN(CCC)[C@@H]1CCc2ccc3[nH]c(C#N)cc3c2C1 ?
Response line: inactive

====

assay: MCF7 Cancer Cell Toxicity qHTS against the NCATS CANVASS Library (AID 1347369); conditions: MCF7 viability, ATP luminescence (CellTiter-Glo), 72 h; series mostly up to 46 µM
Inconclusive results are not listed. Calls of active or inactive are those of the source. Calls come from the whole dose curve; as a rule, active = well fitted cell-killing curve with a large enough effect; inconclusive = small, poorly fitted or top-dose-only effect; inactive = no such curve, though single readings can be large or run the other way.
quantity-measured: outcome

Reference set, count: 5
compound	outcome
COc1ccc2c3c([nH]c2c1)C(C)=NCC3	inactive
CC[C@@H]1CN2CC[C@@]3(O)C(=Nc4cccc(OC)c43)[C@@H]2C[C@@H]1/C(=C\OC)C(=O)OC	inactive
CN(C)Cc1c[nH]c2ccccc12	inactive
CNCCc1c[nH]c2ccccc12	inactive
CCC(=O)CCCCC[C@@H]1NC(=O)[C@H]2CCCCN2C(=O)[C@H]([C@@H](C)CC)NC(=O)[C@H](Cc2cn(OC)c3ccccc23)NC1=O	inactive

Prompt line: For the compound shown here, C/C=C1/CN2CC[C@]34C(=Nc5ccccc53)[C@@H]2C[C@@H]1[C@H]4C(=O)OC , give the reported outcome.
Response line: inactive

Prompt line: Same for COC(=O)C1=C2Nc3ccccc3[C@@]23CCN2CC(C(C)=O)C1C[C@H]23 (stereo not given in full)
Response line: inactive

Prompt line: And what about the compound CC(=O)N[C@H]1CCN2CCC[C@H]12 ?
Response line: inactive

Prompt line: Continue with CC1=CC2CC[C@@H]3[C@@H](C)C[C@H](C)[C@@H](C1)N23 (stereo not given in full)
Response line: inactive

Prompt line: Could you do the same for CC[N@@+]1([O-])C[C@]2(C)CC[C@@H](O)[C@@]34C5C[C@H]6CC[C@@]5(C(C[C@H]23)C41)[C@H](O)[C@@]6(O)CO (stereo not given in full) , please?
Response line: inactive

====

Molecular target: Guanine nucleotide-binding protein G(i) subunit alpha-1 (Homo sapiens) (UniProt P63096)
Sequence (P63096 whole entry, looked up): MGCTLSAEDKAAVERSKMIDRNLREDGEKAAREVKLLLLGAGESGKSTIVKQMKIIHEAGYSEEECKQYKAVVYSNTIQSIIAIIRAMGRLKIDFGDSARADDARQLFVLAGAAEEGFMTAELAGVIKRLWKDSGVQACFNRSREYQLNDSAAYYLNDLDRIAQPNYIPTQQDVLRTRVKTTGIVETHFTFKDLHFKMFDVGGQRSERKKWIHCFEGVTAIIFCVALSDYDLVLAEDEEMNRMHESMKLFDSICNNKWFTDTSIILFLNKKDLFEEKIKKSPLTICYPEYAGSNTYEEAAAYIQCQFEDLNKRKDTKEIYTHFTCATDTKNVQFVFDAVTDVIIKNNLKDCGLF
Test: qHTS Assay for Inhibitors of RGS12 GoLoco Motif Activity (Green Fluorophore) (AID 879);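 note: negative values mean loss of peptide binding seen as reduced polarization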
Settings: Galphai1/FITC-RGS12 GoLoco peptide, fluorescence polarization; series mostly up to 57.1 µM
Text: Assay Overview: NIH Molecular Libraries Screening Centers Network [MLSCN] NIH Chemical Genomics Center [NCGC] MLSCN Grant: NS053754-01 Assay Provider: Siderovski, David P, University of North Carolina at Chapel Hill G-protein-coupled receptors (GPCRs) are major targets for drug discovery. […] Inhibitors of the binding are detected by a decrease in the fluorescence polarization (FP) of the fluorophore. […]
The source made the active and inactive calls. The call rests on the fitted dose curve; in most records, active means well fitted curve in the direction sought with a large enough effect; inconclusive means small, poorly fitted or top-dose-only effect, or another doubt; inactive means no such curve, though single readings can be large or run the other way.
quantity-measured: outcome

Sample answers from the record:
substance-smiles	experimental-value
CCOC(=O)c1ncn2c1[C@H]1CCCN1C(=O)c1cc(OC)ccc1-2	inactive
C=C(C)[C@H]1CN[C@H](C(=O)O)[C@@H]1CC(=O)O	inactive
Oc1ccc2c3c1O[C@H]1c4[nH]c5ccccc5c4C[C@]4(O)[C@H](C2)N(CC2CC2)CC[C@@]314	inactive
CN1CC[C@@]23CCCC[C@@H]2[C@@H]1Cc1ccc(O)cc13	inactive
N[C@@H](Cn1cc(I)c(=O)[nH]c1=O)C(=O)O	inactive

Prompt line: Record request: outcome value, item N[C@H](CCCCCP(=O)(O)O)C(=O)O
Response line: inactive

Prompt line: Then this compound: CP(=O)(O)CCCN
Response line: inactive

Prompt line: Cool, now CN1CCN(c2ccc3ccccc3n2)CC1
Response line: inactive

Prompt line: Try C/C(O)=C(/C#N)C(=O)Nc1cc(Br)ccc1Br next.
Response line: inactive

Prompt line: // query: Oc1ccc2c3c1O[C@H]1c4oc5ccccc5c4C[C@]4(O)[C@H](C2)N(CC2CC2)CC[C@@]314
Response line: inactive

Prompt line: Try this compound next: N[C@H](CCP(=O)(O)O)C(=O)O
Response line: inactive

Prompt line: Thanks! And O=C1NCN(c2ccccc2)C12CCN(C[C@H]1COc3ccccc3O1)CC2 ?
Response line: inactive

Prompt line: Next entry: C[C@H](N)Cc1c[nH]c2ccc(OCc3cccs3)cc12
Response line: inactive

Prompt line: Try the compound Cc1o[nH]c(=O)c1C[C@H](N)C(=O)O
Response line: inactive

Prompt line: Can you check C=CCN1CCC2(C)c3cc(O)ccc3C[C@H]1[C@H]2C next?
Response line: inactive

Prompt line: Lookup CN1C(=O)CCS(=O)(=O)[C@H]1c1ccc(Cl)cc1
Response line: inactive

Just for reference, PubChem BioAssay (NCATS) is where these values come from.
